Kindly state melting point for each of the entries shown.

Challenge: I'd like to know its melting point. The molecule in question is CC(C)Sc1cccc(-c2nc(=O)c3ccccc3s2)n1 [Example 127]
Response given: 185.4 to 185.8 °C

Challenge: Try O=C(O)CCc1ccnc(-c2nc(=O)c3ccc(Br)cc3s2)c1 [Example 188] next.
Response given: 257.5 to 259.1 °C

Challenge: Try CCOCCOc1ccc(-c2nc(=O)c3ccccc3s2)cn1 [Example 94] next.
Response given: 93.6 to 94.9 °C

Challenge: Try O=C1c2ccccc2C(=O)N1Cc1cccc(-c2nc(=O)c3ccccc3s2)n1 [Example 236] next.
Response given: 280.4 to 281.1 °C

Challenge: Try COc1ccc2c(=O)nc(-c3cccc(CCC(=O)OC(C)(C)C)n3)sc2c1 [Example 173] next.
Response given: 134.5 to 135.4 °C

Challenge: Try CN(C)C(=O)NCCc1cccc(-c2nc(=O)c3ccccc3s2)n1 [Example 229] next.
Response given: 190.2 to 191 °C

Challenge: Try CN(C)C(=O)N(Cc1ccccc1)C(=O)c1cccc(-c2nc(=O)c3ccccc3s2)n1 [Example 53] next.
Response given: 222.2 to 224 °C

Challenge: Try CCCCOc1ccc2sc(-c3ccccn3)nc(=O)c2c1 [Example 116] next.
Response given: 160.9 to 161.8 °C

Challenge: Try CCCCNC(=O)c1ccc2c(=O)nc(-c3ccccn3)sc2c1 [Example 237] next.
Response given: 193.5 to 194.2 °C

* * *

Kindly state melting point for each of the entries shown.

Challenge: I'd like to know its melting point. The molecule in question is O=c1nc(-c2ccnc(-c3cccs3)c2)sc2ccccc12
Response given: 160.4 to 161.1 °C

Challenge: Try CN(CC(=O)OC(C)(C)C)c1cncc(-c2nc(=O)c3ccccc3s2)n1 next.
Response given: 189 to 190.5 °C

Challenge: Try O=C(NCc1ccccc1)c1cccc(-c2nc(=O)c3ccccc3s2)n1 next.
Response given: 197.1 to 197.9 °C

Challenge: Try O=c1nc(-c2cnccn2)sc2cc(Cl)ccc12 next.
Response given: 240.6 to 240.9 °C

Challenge: Try COc1cccc(-c2nc(=O)c3ccccc3s2)n1 next.
Response given: 226 to 226.1 °C

* * *

Kindly state melting point for each of the entries shown.

Challenge: I'd like to know its melting point. The molecule in question is O=c1nc(-c2cccc(CCCO)n2)sc2ccccc12
Response given: 145.5 to 146 °C

Challenge: Try COc1cc(-c2nc(=O)c3ccccc3s2)ccn1 next.
Response given: 148.8 to 150.5 °C

Challenge: Try CSc1ccc(Oc2ccc(-c3nc(=O)c4ccccc4s3)cn2)cc1 next.
Response given: 140.5 to 140.6 °C

Challenge: Try O=c1nc(-c2cnccn2)sc2ccccc12 next.
Response given: 240.7 to 241.7 °C

Challenge: Try CS(=O)(=O)c1nccc(-c2nc(=O)c3ccccc3s2)n1 next.
Response given: 269.5 to 270 °C

Challenge: Try O=C(O)c1cccc(-c2nc(=O)c3ccccc3s2)n1 next.
Response given: 260.2 to 260.5 °C

Challenge: Try O=c1nc(-c2cccc(CSc3ccncc3)n2)sc2ccccc12 next.
Response given: 181.9 to 182.5 °C

Challenge: Try CC(C)C(=O)NCc1cccc(-c2nc(=O)c3ccccc3s2)n1 next.
Response given: 188.6 to 189.2 °C

Challenge: Try Cc1cccc2c(=O)nc(-c3cccc(CCC(=O)OC(C)(C)C)n3)sc12 next.
Response given: 109.9 to 110 °C

Challenge: Try O=C(O)CCc1ccnc(-c2nc(=O)c3ccc(F)cc3s2)c1 next.
Response given: 240 °C (dec.)

Challenge: Try O=C(NCCc1cccc(-c2nc(=O)c3ccccc3s2)n1)c1ccccc1 next.
Response given: 201.7 to 202.6 °C

Challenge: Try C[S+]([O-])Cc1cccc(-c2nc(=O)c3ccccc3s2)n1 (stereo not shown) next.
Response given: 184.5 to 185.5 °C

Challenge: Try CCCCCCNc1cc(-c2nc(=O)c3ccccc3s2)ccn1 next.
Response given: 133.8 to 134.6 °C

Challenge: Try CS(=O)(=O)c1cc(CCC(=O)O)cc(-c2nc(=O)c3ccccc3s2)n1 next.
Response given: 305.5 to 306 °C

Challenge: Try O=c1nc(-c2cccc(OCc3ccccc3)n2)sc2ccccc12 next.
Response given: 240.9 to 241 °C

Challenge: Try CC(C)(C)OC(=O)NCc1cccc(-c2nc(=O)c3ccccc3s2)n1 next.
Response given: 160 to 162.1 °C

Challenge: Try O=c1nc(-c2ccccn2)sc2ccc(Cl)cc12 next.
Response given: 269.4 to 270.1 °C

Challenge: Try CCCS(=O)(=O)Cc1cccc(-c2nc(=O)c3ccccc3s2)n1 next.
Response given: 177 to 179 °C

Challenge: Try Cc1ccc2c(=O)nc(-c3cccc(CCC(=O)OC(C)(C)C)n3)sc2c1 next.
Response given: 134.8 to 134.9 °C
